experimental_protocol: Solubility of zeaxanthin in solvents (saturated solution, residue weighed)
Format: physicochemical
measurement_setup: organic solvent or mixture, thermodynamic from solid; solvent EtOAc (ethyl acetate)

compound: CC1=C(/C=C/C(C)=C/C=C/C(C)=C/C=C/C=C(C)/C=C/C=C(C)/C=C/C2=C(C)CC(O)CC2(C)C)C(C)(C)CC(O)C1 (stereo not shown)
solubility: 1.07 mg/mL

====

experimental_protocol: Solubility of zeaxanthin in solvents (saturated solution, residue weighed)
Format: physicochemical
measurement_setup: organic solvent or mixture, thermodynamic from solid; solvent Acetone

compound: CC1=C(/C=C/C(C)=C/C=C/C(C)=C/C=C/C=C(C)/C=C/C=C(C)/C=C/C2=C(C)CC(O)CC2(C)C)C(C)(C)CC(O)C1 (stereo not shown) [Zeaxanthin, zeaxanthin]
display_unit: µg/mL
solubility: 1630

Entry source: patent US8247615B2
